- Tested on: CYP1A2
- method.summary: CYP inhibition evaluation in human liver microsomes, CYP1A2 (phenacetin)
- Assay type: in vitro ADME
- conditions: pH 7.4, probe substrate phenacetin
- Method: Incubations were performed in human liver microsomes using probe substrate concentrations similar to their corresponding Km values. Enzyme activity was evaluated in the presence of various concentrations of A-998679. […] Analytes were separated using a Phenomenex Prodigy ODS(3) 5 μm, 50 × 2.0 mm column at 50°C, eluted and detected under the specific conditions listed in Tables A3, A4, and A5. […]
reported.property: pIC50
A value of pIC50 is the negative decimal logarithm of a concentration given in moles per litre.

# input Would you kindly share the measured pIC50 for N#Cc1cccc(-c2noc(-c3cccnc3)n2)c1 ?
# output 6.34

----------
- target.system: CYP3A4 (Homo sapiens)
- Sequence (P08684 whole entry): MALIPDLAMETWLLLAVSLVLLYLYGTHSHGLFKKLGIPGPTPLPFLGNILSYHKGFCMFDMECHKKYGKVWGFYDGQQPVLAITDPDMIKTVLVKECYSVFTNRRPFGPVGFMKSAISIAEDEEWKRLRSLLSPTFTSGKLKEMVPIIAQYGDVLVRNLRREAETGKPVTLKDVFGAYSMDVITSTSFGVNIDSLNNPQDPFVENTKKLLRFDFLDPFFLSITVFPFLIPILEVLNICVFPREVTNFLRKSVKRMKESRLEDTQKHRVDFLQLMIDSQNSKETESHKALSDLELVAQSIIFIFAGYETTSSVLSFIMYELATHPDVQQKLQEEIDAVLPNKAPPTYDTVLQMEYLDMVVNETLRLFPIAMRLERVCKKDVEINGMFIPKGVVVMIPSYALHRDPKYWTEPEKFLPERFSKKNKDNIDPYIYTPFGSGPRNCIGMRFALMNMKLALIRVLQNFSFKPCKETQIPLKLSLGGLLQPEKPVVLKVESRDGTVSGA
pIC50: −log10 of the molar value.
reported.property: pIC50

# input Would you kindly share the measured pIC50 for N#Cc1cccc(-c2noc(-c3cccnc3)n2)c1 ?
# output < 4.52

----------
- target.system: aryl hydrocarbon receptor (AhR) (Homo sapiens)
- Construct: endogenous in cells
- Sequence (P35869 11-848): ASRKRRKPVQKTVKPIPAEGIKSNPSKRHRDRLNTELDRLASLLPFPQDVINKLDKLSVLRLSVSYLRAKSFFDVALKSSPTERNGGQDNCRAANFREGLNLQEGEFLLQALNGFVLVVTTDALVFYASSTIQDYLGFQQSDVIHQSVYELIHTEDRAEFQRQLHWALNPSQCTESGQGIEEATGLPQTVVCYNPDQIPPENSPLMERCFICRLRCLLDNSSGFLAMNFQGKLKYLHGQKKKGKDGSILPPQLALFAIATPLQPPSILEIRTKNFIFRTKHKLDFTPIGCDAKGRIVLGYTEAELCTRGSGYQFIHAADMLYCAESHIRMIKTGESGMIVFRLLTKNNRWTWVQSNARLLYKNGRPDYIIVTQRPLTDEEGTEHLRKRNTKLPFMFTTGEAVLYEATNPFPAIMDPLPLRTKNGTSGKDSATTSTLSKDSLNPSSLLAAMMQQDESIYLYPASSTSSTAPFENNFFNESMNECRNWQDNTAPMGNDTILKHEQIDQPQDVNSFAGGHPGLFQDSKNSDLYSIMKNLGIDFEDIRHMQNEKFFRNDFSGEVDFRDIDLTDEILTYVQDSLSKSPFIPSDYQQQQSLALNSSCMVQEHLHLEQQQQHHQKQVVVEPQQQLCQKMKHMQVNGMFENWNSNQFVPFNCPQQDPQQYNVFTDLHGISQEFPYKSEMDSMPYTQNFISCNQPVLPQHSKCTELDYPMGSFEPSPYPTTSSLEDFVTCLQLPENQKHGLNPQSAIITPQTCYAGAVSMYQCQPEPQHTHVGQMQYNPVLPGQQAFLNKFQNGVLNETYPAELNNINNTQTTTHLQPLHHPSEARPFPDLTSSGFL
- method.summary: AhR luciferase reporter assay in HepG2 cells
- conditions: luciferase reporter with human DRE construct, 24 h, read-out: EC50, activation of AhR signaling
The following compounds are shown together with reported pEC50 values.
A value of pEC50 is the negative decimal logarithm of a concentration given in moles per litre.

# input Would you kindly share the measured pEC50 for N#Cc1cccc(-c2noc(-c3cccnc3)n2)c1 ?
# output 4.79

More entries:
# input Would you kindly share the measured pEC50 for Cc1ccc2cc3c(ccc4ccccc43)c3c2c1CC3 [3MC, 3-methylcholanthrene, reference compound] ?
# output 5.68
